Numbers sourced from patent US20070185093A1.

- test_target: human gastrin (CCK2) receptors (Homo sapiens, UniProt P32239)
- Construct: amplified by PCR (polymerase chain reaction) from the start codon to the stop codon; expressed in transfected cells
- Sequence (P32239 whole entry): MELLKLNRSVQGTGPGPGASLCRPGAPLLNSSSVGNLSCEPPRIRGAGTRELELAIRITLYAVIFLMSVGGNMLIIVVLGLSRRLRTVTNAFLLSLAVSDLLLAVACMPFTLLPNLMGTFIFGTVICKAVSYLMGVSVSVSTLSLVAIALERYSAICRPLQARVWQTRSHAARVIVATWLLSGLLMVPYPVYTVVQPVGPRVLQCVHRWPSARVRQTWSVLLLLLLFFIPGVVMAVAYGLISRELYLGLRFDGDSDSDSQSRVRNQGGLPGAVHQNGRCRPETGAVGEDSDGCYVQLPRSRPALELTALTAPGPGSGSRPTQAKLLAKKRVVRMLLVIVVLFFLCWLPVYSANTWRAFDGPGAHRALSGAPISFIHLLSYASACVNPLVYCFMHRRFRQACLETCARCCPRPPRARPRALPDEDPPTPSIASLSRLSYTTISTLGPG
- assay_overview: Displacement of [125I]-BH-CCK-8S from human CCK2 receptors cloned into NIH3T3 cells (membranes)
- Format: binding
- recorded_conditions: hCCK2 receptor, NIH3T3 clone 7 membranes, [125I]-BH-CCK-8S 200 pM, 150 min at 21° C.; ± s.e. mean; read-out: CCK2 (pKI) (converted)
- Experimental: A number of compounds were tested at human gastrin (CCK2) receptors which have been cloned into an NIH3T3 cell line as follows: […] The binding of [^125I]-BH-CCK-8S to the hCCK2 receptor isoform was saturable. […] Saturation data were analysed using the curve-fitting programmes, Radlig and Ligand. […]
metric_name: Ki (nM)

O=C(CN1NC(C2CCCCC2)c2ccccc2N(CC(=O)C2CCCC2)C1=O)Nc1cccc(-c2nc(=O)o[nH]2)c1 (racemic); 0.0794

A: CC1(C(=O)CN2C(=O)N(CC(=O)Nc3cccc(C(=O)O)c3)NC(C3CCCCC3)c3ccccc32)CCCCC1 (racemic)
B: CNc1cccc(NC(=O)CN2NC(C3CCCCC3)c3ccccc3N(CC(=O)C(C)(C)C)C2=O)c1 (racemic)
**Q:** Response body: label of entry with the larger Ki; valid values A , B . Pick one and reply with its label.
**A:** B

P: O=C(CN1NC(C2CCCCC2)c2ccccc2N(CC(=O)C2CCCC2)C1=O)Nc1cccc(C(=O)O)c1 (racemic) [Example 4]
Q: O=C(O)CCc1cccc(NC(=O)CN2NC(C3CCCCC3)c3ccccc3N(CC(=O)C3CCCC3)C2=O)c1 (racemic)
**Q:** Which item exceeds the other in Ki, P or Q ? Please respond with the label that marks your chosen entry.
**A:** P
(P: 1.48 nM, Q: 0.759 nM)

1: O=C(O)Cc1cccc(NC(=O)CN2NC(C3CCCCC3)c3ccccc3N(CC(=O)C3CCCCC3)C2=O)c1 (single isomer, unassigned; (-)) [Example 14]
2: CNc1cccc(NC(=O)CN2NC(C3CCCCC3)c3ccccc3N(CC(=O)C3CCCC3)C2=O)c1 (racemic)
**Q:** Look at 1 and 2 . Which one has the lower recorded Ki number? API: response body contains the label of the selected item.
**A:** 1

====

- test_target: human gastrin (CCK2) receptors (Homo sapiens)
- Construct: amplified by PCR (polymerase chain reaction) from the start codon to the stop codon; expressed in transfected cells
- assay_overview: Displacement of [125I]-BH-CCK-8S from human CCK2 receptors cloned into NIH3T3 cells (membranes)
- Format: binding
- recorded_conditions: hCCK2 receptor, NIH3T3 clone 7 membranes, [125I]-BH-CCK-8S 200 pM, 150 min at 21° C.; ± s.e. mean; read-out: CCK2 (pKI) (converted)
metric_name: Ki (nM)

O=C(CN1NC(C2CCCCC2)c2ccccc2N(CC(=O)C2CCCC2)C1=O)Nc1cccc(-c2nnn[nH]2)c1 (racemic) [Example 15]; 0.501

a: O=C(CN1NC(C2CCCCC2)c2ccccc2N(CC(=O)C2CCCCC2)C1=O)Nc1cccc(C(=O)O)c1 (racemic) [Example 9]
b: CC(C)(C)C(=O)CN1C(=O)N(CC(=O)Nc2cccc(C(=O)O)c2)NC(C2CCCCC2)c2ccccc21 (racemic) [Example 1]
**Q:** For the two items a and b , which reports the higher Ki value? Answer = label.
**A:** b
(b: 17.8 nM, a: 2.24 nM)
